measured-target: TARP γ8 dependent AMPA receptor (GluA1o-g8 fusion channel) (Homo sapiens (Human), UniProt P42261+Q8WXS5)
Sequence (P42261 other isoform, or with tags, fused parts or gaps): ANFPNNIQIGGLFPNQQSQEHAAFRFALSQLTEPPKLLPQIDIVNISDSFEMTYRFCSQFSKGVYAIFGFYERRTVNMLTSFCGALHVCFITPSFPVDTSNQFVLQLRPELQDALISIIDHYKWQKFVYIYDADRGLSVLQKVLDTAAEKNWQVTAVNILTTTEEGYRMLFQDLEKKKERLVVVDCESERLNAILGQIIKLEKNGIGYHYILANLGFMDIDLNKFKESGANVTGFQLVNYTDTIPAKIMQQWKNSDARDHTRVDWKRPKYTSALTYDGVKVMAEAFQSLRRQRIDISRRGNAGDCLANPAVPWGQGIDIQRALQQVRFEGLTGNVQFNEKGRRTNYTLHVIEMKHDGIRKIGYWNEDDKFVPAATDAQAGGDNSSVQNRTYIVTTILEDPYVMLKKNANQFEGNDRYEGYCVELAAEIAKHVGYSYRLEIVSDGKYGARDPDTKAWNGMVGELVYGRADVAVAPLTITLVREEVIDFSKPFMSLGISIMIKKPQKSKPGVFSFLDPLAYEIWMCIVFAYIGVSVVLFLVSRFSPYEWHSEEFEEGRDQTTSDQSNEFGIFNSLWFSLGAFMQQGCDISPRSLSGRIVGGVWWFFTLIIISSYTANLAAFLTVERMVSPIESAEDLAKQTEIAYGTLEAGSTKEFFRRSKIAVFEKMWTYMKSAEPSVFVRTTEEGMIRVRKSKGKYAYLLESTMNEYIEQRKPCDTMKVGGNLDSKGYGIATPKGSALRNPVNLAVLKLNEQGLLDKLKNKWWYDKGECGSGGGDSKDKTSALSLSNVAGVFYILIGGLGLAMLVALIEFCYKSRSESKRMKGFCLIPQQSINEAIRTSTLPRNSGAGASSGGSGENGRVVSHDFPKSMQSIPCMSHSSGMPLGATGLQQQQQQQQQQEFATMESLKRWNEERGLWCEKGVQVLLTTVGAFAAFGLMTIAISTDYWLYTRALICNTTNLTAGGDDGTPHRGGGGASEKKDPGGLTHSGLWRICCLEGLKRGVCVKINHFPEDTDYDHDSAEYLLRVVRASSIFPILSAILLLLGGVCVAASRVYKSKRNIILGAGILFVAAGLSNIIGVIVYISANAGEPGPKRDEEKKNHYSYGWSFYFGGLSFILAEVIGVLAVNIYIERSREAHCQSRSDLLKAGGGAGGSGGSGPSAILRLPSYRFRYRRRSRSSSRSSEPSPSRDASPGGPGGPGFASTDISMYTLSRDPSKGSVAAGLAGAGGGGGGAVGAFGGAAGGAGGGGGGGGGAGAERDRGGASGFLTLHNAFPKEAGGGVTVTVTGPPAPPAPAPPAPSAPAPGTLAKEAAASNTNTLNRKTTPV
assay-comment: Calcium flux assay (FLIPR), HEK293 cells expressing GRIA1o-CACNG8 fusion
Format: cell-based
protocol-conditions: inhibition of calcium flux after 15 μM glutamate, read-out: GluR1-γ8 pIC50 (converted)
value-type: IC50 (nM)

>>> readout_value("O=c1[nH]c2ccc(-c3ccccc3Oc3ccccc3)cc2[nH]1")
501
>>> readout_value("CC1(C)CN(Cc2cccc(-c3ccc4[nH]c(=O)[nH]c4c3)c2Cl)CCO1")
100
>>> readout_value("CC(C)(C#N)c1cccc(Cl)c1-c1ccc2[nH]c(=O)[nH]c2c1")
25.1
>>> readout_value("CC(C)Oc1cccc(F)c1-c1ccc2[nH]c(=O)[nH]c2c1")
501
>>> readout_value("COC(=O)c1cccc(-c2ccc3[nH]c(=O)[nH]c3c2)c1C")
50.1
>>> readout_value("N#Cc1ccc(Cl)c(-c2ccc3[nH]c(=O)[nH]c3c2)c1OC(F)(F)F")
15.8
>>> readout_value("N#Cc1cccc(-c2ccc3[nH]c(=O)[nH]c3c2)c1Cl")
316
>>> readout_value("Cc1c(C(=O)Nc2ccccc2)cccc1-c1ccc2[nH]c(=O)[nH]c2c1")
794
>>> readout_value("CC(C)(C)OC(=O)N1CC(Oc2cccc(Cl)c2-c2ccc3[nH]c(=O)[nH]c3c2)C1")
316

Origin of the recorded values: patent US10611730B2
